- Tested on: CDC2L2
- test conditions: concentration: 1 μM, replicates: in singlicate; n = 1;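 further: KINOMEscan kinase panel screen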
metric name: %Inh (%)

CSc1ccc(NC2=C(c3ccc(Cl)cc3)C(=O)NC2=O)cc1 = 2
Cc1ccc(NC(=O)c2cccc(N3CCCCC3)c2)cc1-c1ccc(C(=O)NCC2CC2)cc1 = 8
Cc1cccc(Nc2nc(NCCN)ncc2C(N)=O)c1 = 18
CN(C)c1ncnc2nc[nH]c12 = 0
O=C(Nc1n[nH]c2nc(-c3ccccc3)ccc12)C1CC1 = 0
CS(=O)(=O)c1cccc(CNc2nc(Nc3ccc4c(c3)CCC(=O)N4)ncc2C(F)(F)F)c1 = 0
COc1cccc2c(-c3ccncc3)c(-c3ccc(F)cc3)nn12 = 4
COc1ccc(NC(=O)c2ccoc2)cc1-c1ccc(C(=O)NCC2CC2)cc1 = 6
Cc1ccccc1CC(=O)N1CCc2cc(-c3cn(C)c4ncnc(N)c34)ccc21 = 3

---

- System: PRKCE
- test conditions: concentration: 1 μM, replicates: in singlicate; n = 1
Entries get a class label from measured %Inh. See ranges: low value = under 5%, medium value = from 5% up to 20%, high value = 20% and over

N#Cc1cnc2cc(-c3cnc(CNCCN4CCOCC4)s3)ccc2c1Nc1ccc(Oc2ccccc2)cc1 = low value
O=C(Nc1n[nH]c2nc(-c3ccccc3)ccc12)C1CC1 = low value
c1ccc(Oc2ccc(Nc3ccnc4cc(-c5ccc(CN6CCCCC6)o5)ccc34)cc2)nc1 = low value
Cl.Cl.NC(CNC(=O)c1cc(Br)c(-c2ccnc3[nH]ccc23)s1)c1ccccc1 (stereo not drawn) = high value
Cc1ccc(NC(=O)c2ccc(Cl)c(Cl)c2)cc1-c1ccc(C(=O)Nc2ccncc2)cc1 = medium value
COc1cc(Nc2nccc(N3CCC(NS(=O)(=O)c4ccc(NC(C)=O)cc4)CC3)n2)cc(OC)c1OC = medium value
CN(c1ccc(F)c(NC(=O)c2cccc(OC(C)(C)C#N)c2Cl)c1)c1ccc2nc(NC(=O)C3CC3)sc2n1 = low value
CS(=O)(=O)c1cccc(CNc2nc(Nc3ccc4c(c3)CCC(=O)N4)ncc2C(F)(F)F)c1 = low value
N#CC1(c2cccc(C(=O)Nc3cccc(Oc4ccc5nc(NC(=O)C6CC6)sc5n4)c3)c2)CC1 = medium value
COc1cccc2c(-c3ccncc3)c(-c3ccc(F)cc3)nn12 = high value
Cc1cccc(Nc2nc(NCCN)ncc2C(N)=O)c1 = high value
CCNc1nccc(-c2c(-c3ccc(F)cc3)ncn2C2CCN(C)CC2)n1 = high value
Cl.O=C(Nc1ccc(Oc2ccc3[nH]c(NC(=O)c4ccco4)nc3c2)cc1)Nc1cc(C(F)(F)F)ccc1F = low value
NCCC(NC(=O)c1cc(Br)c(-c2ccnc3[nH]ccc23)s1)c1ccccc1.O=C(O)C(F)(F)F.O=C(O)C(F)(F)F (stereo not drawn) = high value
COc1cccc(-c2nc(-c3ccccc3)[nH]c2-c2ccncc2)c1 = medium value
COc1cccc(C2=C(Nc3cccc(O)c3)C(=O)NC2=O)c1 = high value
CC(C)c1nc(-c2ccc(F)c(NS(=O)(=O)c3c(F)cccc3F)c2)c(-c2ccnc(Nc3ccc(N4CCOCC4)nc3)n2)s1 = medium value
O=C(Nc1n[nH]c2cc(-c3cccs3)ccc12)C1CC1 = medium value
Cc1ccc(O)cc1Nc1ccnc2ccc(C(C)(C)C)cc12 = high value
CSc1ccc(NC2=C(c3ccc(Cl)cc3)C(=O)NC2=O)cc1 = low value
CN(c1ccc(NC(=O)N2CCN(CCCN3CCOCC3)CC2)cc1)c1ccnc(Nc2ccc(CS(C)(=O)=O)cc2)n1.Cl = low value
CC(=O)Nc1cn2nc(Oc3cccc(NC(=O)c4cccc(C(F)(F)F)c4)c3)ccc2n1 = low value
COc1cc(Nc2nccc(N3CCC(NC(=O)Nc4ccc5c(c4)OCO5)C3)n2)cc(OC)c1OC (stereo not drawn) = medium value
CNc1nccc(-c2ccc3c(N)n[nH]c3c2)n1 = medium value
COC(=O)Nc1nc2cc(Oc3ccc(NC(=O)Nc4cccc(SC)c4)cc3)ccc2[nH]1.Cl = medium value
Cl.Cl.NCC(NC(=O)c1cc(-c2cccnc2)c(-c2ccnc3[nH]ccc23)s1)c1ccccc1 (stereo not drawn) = high value
COc1cc(Nc2ccnc3cc(-c4ccncc4)ccc23)cc(OC)c1OC.Cl = high value
CN(C)CCOc1ccc(-c2cc(-c3ccc(Cl)c(O)c3)c(-c3ccncc3)[nH]2)cc1.Cl.Cl = high value
Cc1cc(-c2ccnc(Nc3cccc(C#N)c3)n2)cc(C)c1O = medium value
CCn1c(-c2nonc2N)nc2c(-c3ccccc3)ncc(OCCCN)c21.O=C(O)C(F)(F)F.O=C(O)C(F)(F)F = high value
Cc1ccccc1CC(=O)N1CCc2cc(-c3cn(C)c4ncnc(N)c34)ccc21 = low value
COc1ccc(C2=C(Nc3cccc(O)c3)C(=O)NC2=O)cc1 = high value

meta.source: paper PMC5540273
